Cited source for all entries: PubChem BioAssay

Recorded measurements of z-score, one per entry
Experiment: osmotic lysis modulators in infected erythrocytes, primary screen, PSAC antagonist project, cell-based, P. falciparum Indochina, OD700, 3 h (AID 1156)
Conditions: higher = more signal, called active from +8 up or from −8 down
Active and inactive are the calls of the source.
result-type: z-score

[[record]]
compound = "CCOC(=O)NN=C1C[C@@H](O)[C@@H](O)[C@@H]2[C@@H]3C(=O)N(Cc4ccc5c(c4)OCO5)C(=O)[C@@H]3CC[C@@H]12"
result_type = "z-score"
value_measured = "1.34 (inactive)"

[[record]]
compound = "Cc1cc2c(nc1C)CCCN2CC(C)ON=C[C@@H](C)[C@H](OCc1ccccc1)C(C)C (stereo partly drawn)"
result_type = "z-score"
value_measured = "-0.108 (inactive)"

[[record]]
compound = "CC(C)=NOCc1ccc(-c2cn([C@@H]3COC[C@H]3O)nn2)cc1"
result_type = "z-score"
value_measured = "-0.725 (inactive)"

[[record]]
compound = "CO[C@@H]1C=CCC(=O)N2CCC[C@H]2C(=O)OC[C@H](C)C(=O)OC[C@H]1C"
result_type = "z-score"
value_measured = "-0.355 (inactive)"

[[record]]
compound = "CCOC(=O)[C@H](CC(C)C)NC(=O)CCC1CC(OC(=O)NCc2cccc3ccccc23)CC2(CCCC(COC(=O)NCc3ccccc3)O2)O1 (stereo partly drawn)"
result_type = "z-score"
value_measured = "-1.33 (inactive)"

[[record]]
compound = "CO[C@@H]1COC(=O)CC=C[C@H](C)COC(=O)[C@H](C)NC(=O)CC=C[C@H]1C"
result_type = "z-score"
value_measured = "0.599 (inactive)"

[[record]]
compound = "CCOC(=O)[C@H](Cc1ccccc1)NC(=O)CCC1CC(OC(=O)NCc2cccc3ccccc23)CC2(CCCC(COC(=O)NCCCN3CCCC3=O)O2)O1 (stereo partly drawn)"
result_type = "z-score"
value_measured = "-2.17 (inactive)"

[[record]]
compound = "COC(=O)[C@H](C)NC(=O)CCC1CC(OC(=O)NCCc2ccc(F)cc2)CC2(CCCC(COC(=O)NCCCN3CCCC3=O)O2)O1 (stereo partly drawn)"
result_type = "z-score"
value_measured = "1.05 (inactive)"

[[record]]
compound = "C[C@@H](c1ccccc1)N1C(=O)[C@H]2[C@H]3[C@H](O)[C@H](O)CC(=O)[C@@H]3CC[C@H]2C1=O"
result_type = "z-score"
value_measured = "0.279 (inactive)"

[[record]]
compound = "C=C(C)C(=O)OC[C@@H]1CN2[C@@H](CC[C@@H](C)[C@@H]2c2ccc(Br)cc2)C(=O)O1"
result_type = "z-score"
value_measured = "0.289 (inactive)"

[[record]]
compound = "CCN1C(=O)[C@H]2[C@H]3[C@H](O)[C@H](O)CC(=NNC(=O)OCc4ccc(OC)cc4)[C@H]3CC[C@H]2C1=O"
result_type = "z-score"
value_measured = "0.175 (inactive)"

[[record]]
compound = "CCCNC(=O)OC[C@H]1O[C@H](CCON=C(C)CCC(=O)OC[C@H]2O[C@H](C#Cc3ccccc3)C=C[C@@H]2Oc2ccc(C)cc2)C=C[C@@H]1Oc1ccc(OC)cc1"
result_type = "z-score"
value_measured = "-0.107 (inactive)"

[[record]]
compound = "CCN1C(=O)[C@H]2[C@H]3[C@H](O)[C@H](O)CC(=NOC)[C@@H]3CC[C@H]2C1=O"
result_type = "z-score"
value_measured = "0.47 (inactive)"

[[record]]
compound = "CO[C@H]1COC(=O)CC=C[C@@H](C)COC(=O)[C@@H](OCc2ccccc2)C=C[C@@H]1C"
result_type = "z-score"
value_measured = "0.362 (inactive)"

[[record]]
compound = "CC(C)=CCCC(C)=CCON=C1C[C@@H](O)[C@@H](O)[C@@H]2[C@@H]3C(=O)N([C@@H](C)c4ccccc4)C(=O)[C@@H]3CC[C@H]12"
result_type = "z-score"
value_measured = "1.3 (inactive)"

[[record]]
compound = "CCCNC(=O)OC[C@H]1O[C@H](CCON=C(C)CCN2CCc3nc(-c4ccccc4)c(-c4ccccc4)cc3C2)C=C[C@@H]1Oc1ccc(OC)cc1"
result_type = "z-score"
value_measured = "0.571 (inactive)"

[[record]]
compound = "CCOC(=O)NN=C1C[C@@H](O)[C@@H](O)[C@@H]2[C@@H]3C(=O)N(Cc4ccccc4)C(=O)[C@@H]3CC[C@@H]12"
result_type = "z-score"
value_measured = "0.979 (inactive)"

[[record]]
compound = "CC(C)C(=O)N[C@@H]1CCCN1C(=O)C=Cc1ccccc1"
result_type = "z-score"
value_measured = "-0.77 (inactive)"


----------
Recorded measurements of composite z-score, one per entry
Assay: binders of probe aFGF10 on microarray, primary screen, stem cell growth factor project, biochemical, small-molecule microarray, fluorescence 635/667 (AID 1071);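 also: score merges 667 nm spot intensity and signal to noise from triplicate slides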
Conditions: higher = more signal
result-type: composite z-score

[[record]]
molecule = "C=CCN(CCCCC)C(=O)C1N(CCOCCO)C(=O)C2C(C(=O)O)C3C=CC21O3 (configuration not stated)"
value_measured = -1.87

[[record]]
molecule = "C=C(C)C(=O)OC[C@@H]1CN2[C@@H](CC[C@@H](C)[C@@H]2c2ccc(Br)cc2)C(=O)O1"
value_measured = 0.733

[[record]]
molecule = "C[C@@H]1CC[C@@H](C(=O)O)N[C@H]1c1ccc(-c2ccco2)cc1"
value_measured = 0.422

[[record]]
molecule = "COc1ccc(COC(=O)NN=C2C[C@@H](O)[C@@H](O)[C@@H]3[C@@H]4C(=O)N(C(C)(C)C)C(=O)[C@@H]4CC[C@H]23)cc1"
value_measured = 0.799

[[record]]
molecule = "CC(C)=NO[C@@H](C)c1cc(-c2c(C)cc(C)cc2C)no1"
value_measured = 0.0794

[[record]]
molecule = "CO[C@@H]1C=CCC(=O)N2CCC[C@H]2C(=O)OC[C@H](C)C(=O)OC[C@H]1C"
value_measured = 0.0525

[[record]]
molecule = "CC(C)=NOC[C@@H](O)COCc1ccco1"
value_measured = 0.0026

[[record]]
molecule = "CCOC(=O)NN=C1C[C@@H](O)[C@@H](O)[C@@H]2[C@@H]3C(=O)N(Cc4ccccc4)C(=O)[C@@H]3CC[C@@H]12"
value_measured = 0.295

[[record]]
molecule = "CCCNC(=O)OC[C@H]1O[C@H](CCON=C(C)CCC(=O)OC[C@H]2O[C@H](C#Cc3ccccc3)C=C[C@@H]2Oc2ccc(C)cc2)C=C[C@@H]1Oc1ccc(OC)cc1"
value_measured = -0.187

[[record]]
molecule = "CCCNC(=O)OC[C@H]1O[C@H](CCON=C(C)CCN2CCc3nc(-c4ccccc4)c(-c4ccccc4)cc3C2)C=C[C@@H]1Oc1ccc(OC)cc1"
value_measured = 0.118

[[record]]
molecule = "CC(C)=NOCc1ccc(-c2cn([C@@H]3COC[C@H]3O)nn2)cc1"
value_measured = 0.543

[[record]]
molecule = "CCOC(=O)[C@H](Cc1ccccc1)NC(=O)CCC1CC(OC(=O)NCc2cccc3ccccc23)CC2(CCCC(COC(=O)NCCCN3CCCC3=O)O2)O1 (some centres not stated)"
value_measured = 0.122

[[record]]
molecule = "CC(C)CON=C1C[C@@H](O)[C@@H](O)[C@@H]2[C@@H]3C(=O)N(c4cccc(Oc5ccccc5)c4)C(=O)[C@@H]3CC[C@H]12"
value_measured = 0.253

[[record]]
molecule = "CC(C)C(=O)N[C@@H]1CCCN1C(=O)C=Cc1ccccc1"
value_measured = 0.405

[[record]]
molecule = "CO[C@@H]1COC(=O)CC=C[C@H](C)COC(=O)[C@H](C)NC(=O)CC=C[C@H]1C"
value_measured = 0.126

[[record]]
molecule = "CCOC(=O)NN=C1C[C@@H](O)[C@@H](O)[C@@H]2[C@@H]3C(=O)N(Cc4ccc5c(c4)OCO5)C(=O)[C@@H]3CC[C@@H]12"
value_measured = 0.505

[[record]]
molecule = "CO[C@H]1COC(=O)[C@H](C)NC(=O)CC=C[C@@H](C)[C@H](OC)COC(=O)CC=C[C@@H]1C"
value_measured = -0.0919


----------
Assay: small-molecule binders of probe aInhba, primary screen, biochemical, small-molecule microarray, 635/667 nm fluorescence (AID 1148);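 also: score merges 667nm spot fluorescence with signal-to-noise for antibody binding to printed compounds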
Settings: higher = more signal
Recorded measurements of composite z-score, one per entry
result-type: composite z-score

[[record]]
compound = "CC(C)=CCCC(C)=CCON=C1C[C@@H](O)[C@@H](O)[C@@H]2[C@@H]3C(=O)N([C@@H](C)c4ccccc4)C(=O)[C@@H]3CC[C@H]12"
value_measured = -0.233

[[record]]
compound = "CC(C)CCN1CCc2nc(-c3ccccc3)c3c(c2C1)CO[C@@H](C)C3"
value_measured = 0.0173

[[record]]
compound = "COC(=O)[C@H](C)NC(=O)CCC1CC(OC(=O)NCCc2ccc(F)cc2)CC2(CCCC(COC(=O)NCCCN3CCCC3=O)O2)O1 (some centres undefined)"
value_measured = 0.117

[[record]]
compound = "CO[C@H]1COC(=O)[C@H](C)NC(=O)CC=C[C@@H](C)[C@H](OC)COC(=O)CC=C[C@@H]1C"
value_measured = -0.237

